src = patent US20210253725A1

What EC 50 (IL-8 release, cross-linked) was measured for each of the following?
- experimental.system: T1, CD27 expressed on the cell surface of HT1080_CD27 cells (human, UniProt P26842 20-260)
- T1 sequence (looked up): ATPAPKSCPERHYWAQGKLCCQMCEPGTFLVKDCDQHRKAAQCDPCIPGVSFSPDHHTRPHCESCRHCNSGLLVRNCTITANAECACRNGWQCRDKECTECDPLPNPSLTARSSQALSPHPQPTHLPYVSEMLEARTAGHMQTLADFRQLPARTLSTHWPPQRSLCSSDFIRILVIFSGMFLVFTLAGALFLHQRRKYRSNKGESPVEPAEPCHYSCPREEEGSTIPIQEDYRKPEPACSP
- protocol.summary: cell-based or functional assay
One number for each entry, in µg/mL.

Completed entries (count: 2):
| binder | EC 50 (IL-8 release, cross-linked), µg/mL |
| --- | --- |
| P018.S.10.A.C05 (antibody, V domains shown) VH: QSVEETGGRLVTPGTPLTLTCAASGVSLSGYYAMSWVRQAPGKGLEWIGYLDATGSTYYASWVKGRFIISRPSTTVDLQITSPTIEDTATYFCARGSYDGVGYNWGLWGQGTLVTVSS VL: DIVMTQTPASVSEPVGGTVTIKCQASESIYNGLAWYQQKPGQPPKRLIYGASTLTSGVPSRFKGSGSGTEFTLTISDLESDDAATYYCQSNYGSGSRSNYIFGGGTEVVVK | 0.34 |
| P018.S.01.A.D04 (antibody, V domains shown) VH: QEQLEESGGRLVTPGGTLTLTCTASGFSLSNYDMSWVRQAPGKGLEWIGYIWSDGNTDYASWAAGRFTASRASTTVDLKMTSLTTEDTATYFCARGYTGFFLWGPGTLVTVSS VL: DVVMTQTPSSVSTAVGDTVTIKCQASQSIGSSYLSWYQQKPGQPPKLLIYKTSTLASGVPSRFKGSGSGTEFTLTISDLESDDAATYYCQCTYYGGSWRVAFGGGTEVVVK | 1.3 |

Provide EC 50 (IL-8 release, cross-linked) for all items below, preserving their order.
1. P018.S.10.A.C02 (antibody, V domains shown, V regions on human Ig constant parts; also called AB27_171) VH: QSVEESGGRLVTPGTPLTLTCTVSGIDLSNYAMSWVRQTPGKGLEWIGAIGIGGNTYYASWAKGRFTISRTSTMVDLKVASPTPEDTATYFCARHAGAGVVNWLDLWGQGTLVTVSS VL: DVVMTQTPASVSEPVGGTVTIKCQASQSIGSNLAWYQQKPGQPPKLLIYAASDLASGVPSRFSGSGSGTEFTLTISGVQSDDAATFYCQTYGSGSFSSFNLFGGGTEVVVK
2. P018.S.01.A.F05 (antibody, V domains shown) VH: QEQLEESGGDLVKPEGSLTLTCTASGFSFSSSYWICWVRQAPGKGLEWIGCIITGRGNTYYANWAKGRFTISKTSSTTVTLQMTSLTAADTAIYSCARGPGGADPVNLWGPGTLVTVSS VL: DVVMTQTPASVSEPVGGTVTIKCQASQSIYSNLAWYQQKPGQPPKLLIYRASTLTSGVPSRFKGSGSGTQFTLTISDLESADAATYYCQCTYDGSSYVPNAFGGGTEVVVK
3. P018.S.10.A.H02 (antibody, V domains shown) VH: QSLEESGGRLVTPGGSLTLTCTVSGIDLSSYAMGWFRQAPGKGLEYIGIIYSSGSTWFANWVKGRFTISKTSTTVDLKMTSLTTEDTATYFCARYSAADHGDKFKLWGQGTLVTVSS VL: AAVLTQTPSPVSAAVGGTVSISCQSSKNIFDNTRLSWFQQKPGQPPKQLIYGASTLASGVPSRFSGSGSGTQFTLTISGVQSDDAATYYCLGEYSSDSDTSFGGGTEVVVK

output:
[0.414, 1.32, 0.122]
